Test system: L1210 tumor cells
assay protocol: anticancer activity (growth of L1210 tumor cells, trypan blue staining of surviving cells)
Type: cell-based
applied conditions: Mus musculus, 48 h, 2.5×10^4 cells/ml, grown for 2 days
I'd be grateful if you could share measured IC50 for these entries.
Give bare numbers, in µg/mL.

COC(=O)c1ccc(/C=C2/C(=O)C=CC2(O)CCCCOc2ccccc2)cc1 (centres unmarked) [drawing 207]
0.014
COC(=O)c1ccc(/C=C2/C(=O)C=C[C@@]2(O)CCCCOc2ccccc2)cc1 [drawing 213]
0.01
CN(C)c1ccc(/C=C2/C(=O)C(Cl)=CC2(O)CCCCOc2ccccc2)cc1 (centres unmarked) [drawing 212]
0.062

Quick one: give me IC50 for each item below, same order please.
1. CN(C)c1ccc(C=C2C(=O)C=CC2(O)CCCCOc2ccccc2)cc1 (centres unmarked)
2. COC(=O)c1ccc(/C=C2/C(=O)C=C(C)C2(O)CCCCOc2ccccc2)cc1 (centres unmarked) [drawing 208]
3. COC(=O)c1ccc(/C=C2/C(=O)C(Cl)=CC2(O)CCCCOc2ccccc2)cc1 (centres unmarked) [drawing 209]
4. O=C1C=CC(O)(CCCCOc2ccccc2)/C1=C\c1ccncc1 (centres unmarked)
5. COC(=O)c1ccc(/C=C2/C(=O)C=C[C@]2(O)CCCCOc2ccccc2)cc1 [drawing 214]

stdout:
1. 0.378
2. 10.8
3. 0.004
4. 0.021
5. 0.026
